meta.source: ChEMBL document CHEMBL1127343

Tested on: Staphylococcus aureus
Protocol Notes: In vitro antibacterial activity was measured on gram positive bacteria Staphylococcus aureus smith cell lines
Type: functional
Entries whose MIC is below 0.5 µg/mL take Satisfied; entries at or above 0.5 µg/mL take Not satisfied.

1) C[C@H]1c2ccc(NC(=O)[C@@H](N)Cc3ccccc3)c(O)c2C(=O)C2=C(O)[C@]3(O)C(O)=C(C(N)=O)C(=O)[C@@H](N(C)C)C3[C@@H](O)C21 (stereo partly specified) ... Satisfied
2) C[C@H]1c2cccc(O)c2C(=O)C2=C(O)[C@]3(O)C(O)=C(C(N)=O)C(=O)[C@@H](N(C)C)[C@@H]3[C@@H](O)C21 (stereo partly specified) ... Satisfied
3) C[C@H]1c2ccc(NC(=O)[C@H](Cc3ccccc3)N(C)C)c(O)c2C(=O)C2=C(O)[C@]3(O)C(O)=C(C(N)=O)C(=O)[C@@H](N(C)C)C3[C@@H](O)C21 (stereo partly specified) ... Not satisfied
4) CC(C)C[C@H](NC(=O)[C@@H](N)CC(C)C)C(=O)Nc1ccc2c(c1O)C(=O)C1=C(O)[C@]3(O)C(O)=C(C(N)=O)C(=O)[C@@H](N(C)C)C3[C@@H](O)C1[C@H]2C (stereo partly specified) ... Not satisfied
5) C[C@H]1c2ccc(NC(=O)CN(C)C)c(O)c2C(=O)C2=C(O)[C@]3(O)C(O)=C(C(N)=O)C(=O)[C@@H](N(C)C)C3[C@@H](O)C21 (stereo partly specified) ... Satisfied

Hello, I'm reviewing records and need to know if MIC of C[C@H]1c2ccc(NC(=O)[C@@H](N)CCC(=O)O)c(O)c2C(=O)C2=C(O)[C@]3(O)C(O)=C(C(N)=O)C(=O)[C@@H](N(C)C)C3[C@@H](O)C21 (stereo partly specified) is below 0.5 µg/mL. Could you check?
Not satisfied

Try the compound CCCCCCCCCC(=O)Nc1ccc2c(c1O)C(=O)C1=C(O)[C@]3(O)C(O)=C(C(N)=O)C(=O)[C@@H](N(C)C)C3[C@@H](O)C1[C@H]2C (stereo partly specified)
Not satisfied

Try the compound CC(C)[C@H](N)C(=O)Nc1ccc2c(c1O)C(=O)C1=C(O)[C@]3(O)C(O)=C(C(N)=O)C(=O)[C@@H](N(C)C)C3[C@@H](O)C1[C@H]2C (stereo partly specified)
Not satisfied

Try the compound CC(C)C[C@H](NC(=O)CN)C(=O)Nc1ccc2c(c1O)C(=O)C1=C(O)[C@]3(O)C(O)=C(C(N)=O)C(=O)[C@@H](N(C)C)C3[C@@H](O)C1[C@H]2C (stereo partly specified)
Not satisfied
